Test: chemical genetic growth profiling, strain panel (AID 1159580);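 further: tested at 20 µM; growth read once vehicle control cultures reached saturation at 30 °C; 1 = growth at the plate median or of vehicle wells; lower values mean less growth of the strain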
Conditions: S. cerevisiae deletion strains, growth OD, locus YOR083W, strain WHI5, stronger effect = lower value
Out of some 5,500 compounds screened, about 2,000 (36%) were called active. Another 18% or so got no clear call; they are omitted. Some of the results follow.
Please go through the items and note down their normalized growth.
Just the number, please, no unit after it.

Sample `Cc1cc(=O)oc2c(O)c(O)ccc12` — what was its normalized growth?
1

Repeat for the following compound: `NC(N)=O`
1

Repeat for the following compound: C[C@]12C=CC(=O)C=C1CCC1C3C[C@@H](O)[C@](O)(C(=O)CO)[C@@]3(C)C[C@H](O)[C@@]12F (stereo partly specified)
0.901

Repeat for the following compound: `c1ccc2c(c1)CN1CCCC1=N2`
1

Repeat for the following compound: `O=c1cc(-c2ccc(O)cc2)oc2cc(O)ccc12`
0.982

Repeat for the following compound: `O=c1cc(-c2cc(O)c(O)c(O)c2)oc2cc(O)cc(O)c12`
0.916
